Field: Wheal Area. Provide a value for each of the molecules that follow.
System: anaesthesized rats
Test method notes: wheal test, intradermal injection
Format: in vivo, rat
Experimental conditions: 10 ug peptide intradermally
Starred links: 1 amine or outer side, 2 acyl side, 3 side chain; linkers in the order of their positions; H or OH if unused. Non-standard residues stand in square brackets, D forms with d. Residues, ends and D or L forms follow the SMILES beside them. *: point of attachment. X2 = O=C(N[C@H]1CC[C@@H](C[C@H](N[*:1])C(=O)[*:2])CC1)c1cnccn1; dPhe(3,4-Cl2) = N[C@H](Cc1ccc(Cl)c(Cl)c1)C(=O)O; dPhe(4-Cl) = N[C@H](Cc1ccc(Cl)cc1)C(=O)O; d2Nal = N[C@H](Cc1ccc2ccccc2c1)C(=O)O; Lys(iPr) = CC(C)NCCCC[C@H](N)C(=O)O; d3Pal = N[C@H](Cc1cccnc1)C(=O)O; Picolinoyl = O=C(c1ccccn1)*
One number for each entry, in mm^2 /10 μg.

Molecule | Observed measurement
CC(=O)N[C@H](Cc1ccc2ccccc2c1)C(=O)N[C@H](Cc1ccc(Cl)c(Cl)c1)C(=O)N[C@H](Cc1cccnc1)C(=O)N[C@@H](CO)C(=O)N[C@@H](CCCCNC(=O)c1ccccn1)C(=O)N[C@H](CCCCNC(=O)c1ccccn1)C(=O)N[C@@H](CC(C)C)C(=O)N[C@@H](CCCCNC(C)C)C(=O)N1CCC[C@H]1C(=O)N[C@H](C)C(N)=O [compound 25807] (Ac-[d2Nal][dPhe(3,4-Cl2)][d3Pal]SK(Picolinoyl)[dK](Picolinoyl)L[Lys(iPr)]P[dA]-NH2) | 139.8

Continue with the next molecule.
IN: Field request: Wheal Area | item: CC(=O)N[C@H](Cc1ccc2ccccc2c1)C(=O)N[C@H](Cc1ccc(Cl)cc1)C(=O)N[C@H](Cc1cccnc1)C(=O)N[C@@H](CO)C(=O)N[C@@H](C[C@H]1CC[C@@H](NC(=O)c2cnccn2)CC1)C(=O)N[C@H](CCCCNC(=O)c1ccccn1)C(=O)N[C@@H](CC(C)C)C(=O)N[C@@H](CCCCNC(C)C)C(=O)N1CCC[C@H]1C(=O)N[C@H](C)C(N)=O [compound 26180] (Ac-[d2Nal][dPhe(4-Cl)][d3Pal]S[X2][dK](Picolinoyl)L[Lys(iPr)]P[dA]-NH2)
OUT: 99.5

###

Test system: anaesthesized rats
Test method notes: wheal test, intradermal injection
Format: in vivo, rat
Experimental conditions: Table I; 10 ug peptide intradermally
Starred links: 1 amine or outer side, 2 acyl side, 3 side chain; linkers in the order of their positions; H or OH if unused. Non-standard residues stand in square brackets, D forms with d. Residues, ends and D or L forms follow the SMILES beside them. *: point of attachment. X7 = O=C(N[C@H]1CC[C@H](C[C@@H](N[*:1])C(=O)[*:2])CC1)c1cccnc1; dPhe(4-Cl) = N[C@H](Cc1ccc(Cl)cc1)C(=O)O; Pyrimidin2yl(4,6-Me2) = Cc1cc(C)nc(*)n1; d2Nal = N[C@H](Cc1ccc2ccccc2c1)C(=O)O; dLys(Me2) = CN(C)CCCC[C@@H](N)C(=O)O; Lys(iPr) = CC(C)NCCCC[C@H](N)C(=O)O; Pyrazinecarbonyl = O=C(c1cnccn1)*; d3Pal = N[C@H](Cc1cccnc1)C(=O)O; Nicotinoyl = O=C(c1cccnc1)*; dOrn = NCCC[C@@H](N)C(=O)O
Result type: Wheal
Entry format: amount then unit.

Worked cases, answers included:
Molecule | Wheal
CC(=O)N[C@H](Cc1ccc2ccccc2c1)C(=O)N[C@H](Cc1ccc(Cl)cc1)C(=O)N[C@H](Cc1cccnc1)C(=O)N[C@@H](CO)C(=O)N[C@@H](CCCCNC(=O)c1cccnc1)C(=O)N[C@H](CCCNc1nc(C)cc(C)n1)C(=O)N[C@@H](CC(C)C)C(=O)N[C@@H](CCCCNC(C)C)C(=O)N1CCC[C@H]1C(=O)N[C@H](C)C(N)=O [compound 25334] (Ac-[d2Nal][dPhe(4-Cl)][d3Pal]SK(Nicotinoyl)[dOrn](Pyrimidin2yl(4,6-Me2))L[Lys(iPr)]P[dA]-NH2) | 165.2 mm^2 /10
CC(=O)N[C@H](Cc1ccc2ccccc2c1)C(=O)N[C@H](Cc1ccc(Cl)cc1)C(=O)N[C@H](Cc1cccnc1)C(=O)N[C@@H](CO)C(=O)N[C@@H](CCCCNC(=O)c1cccnc1)C(=O)N[C@H](CCCCNC(=O)c1cccnc1)C(=O)N[C@@H](CC(C)C)C(=O)N[C@@H](CCCCNC(=O)c1cccnc1)C(=O)N1CCC[C@H]1C(=O)N[C@H](C)C(N)=O [compound 24596] (Ac-[d2Nal][dPhe(4-Cl)][d3Pal]SK(Nicotinoyl)[dK](Nicotinoyl)LK(Nicotinoyl)P[dA]-NH2) | 122.8 ± 5.7 mm^2 /10
CC(=O)N[C@H](Cc1ccc2ccccc2c1)C(=O)N[C@H](Cc1ccc(Cl)cc1)C(=O)N[C@H](Cc1cccnc1)C(=O)N[C@@H](CO)C(=O)N[C@@H](Cc1ccc(O)cc1)C(=O)N[C@H](CCCCNC(=O)c1cccnc1)C(=O)N[C@@H](CC(C)C)C(=O)N[C@@H](CCCCN)C(=O)N1CCC[C@H]1C(=O)N[C@H](C)C(N)=O [compound 24825] (Ac-[d2Nal][dPhe(4-Cl)][d3Pal]SY[dK](Nicotinoyl)LKP[dA]-NH2) | 119.5 ± 3.2 mm^2 /10
CC(=O)N[C@H](Cc1ccc2ccccc2c1)C(=O)N[C@H](Cc1ccc(Cl)cc1)C(=O)N[C@H](Cc1cccnc1)C(=O)N[C@@H](CO)C(=O)N[C@@H](Cc1ccc(O)cc1)C(=O)N[C@H](CCCCNC(=O)c1cccnc1)C(=O)N[C@@H](CC(C)C)C(=O)N[C@@H](CCCCNC(=O)c1cccnc1)C(=O)N1CCC[C@H]1C(=O)N[C@H](C)C(N)=O [compound 24540] (Ac-[d2Nal][dPhe(4-Cl)][d3Pal]SY[dK](Nicotinoyl)LK(Nicotinoyl)P[dA]-NH2) | 82.6 ± 2.8 mm^2 /10
CC(=O)N[C@H](Cc1ccc2ccccc2c1)C(=O)N[C@H](Cc1ccc(Cl)cc1)C(=O)N[C@H](Cc1cccnc1)C(=O)N[C@@H](CO)C(=O)N[C@@H](CCCCNC(=O)c1cccnc1)C(=O)N[C@H](C[C@H]1CC[C@H](NC(=O)c2cccnc2)CC1)C(=O)N[C@@H](CC(C)C)C(=O)N[C@@H](CCCCNC(C)C)C(=O)N1CCC[C@H]1C(=O)N[C@H](C)C(N)=O [compound 25647] (Ac-[d2Nal][dPhe(4-Cl)][d3Pal]SK(Nicotinoyl)[X7]L[Lys(iPr)]P[dA]-NH2) | 119.5 ± 3.2 mm^2 /10

Take each entry in turn and give its Wheal.
1. CC(=O)N[C@H](Cc1ccc2ccccc2c1)C(=O)N[C@H](Cc1ccc(Cl)cc1)C(=O)N[C@H](Cc1cccnc1)C(=O)N[C@@H](CO)C(=O)N[C@@H](CCCCNC(=O)c1cccnc1)C(=O)N[C@H](CCCCNC(=O)c1cnccn1)C(=O)N[C@@H](CC(C)C)C(=O)N[C@@H](CCCCNC(C)C)C(=O)N1CCC[C@H]1C(=O)N[C@H](C)C(N)=O [compound 25649] (Ac-[d2Nal][dPhe(4-Cl)][d3Pal]SK(Nicotinoyl)[dK](Pyrazinecarbonyl)L[Lys(iPr)]P[dA]-NH2)
2. CC(=O)N[C@H](Cc1ccc2ccccc2c1)C(=O)N[C@H](Cc1ccc(Cl)cc1)C(=O)N[C@H](Cc1cccnc1)C(=O)N[C@@H](CO)C(=O)N[C@@H](CCCNC(=N)N)C(=O)N[C@H](CCCCNC(=O)c1cccnc1)C(=O)N[C@@H](CC(C)C)C(=O)N[C@@H](CCCNC(=N)N)C(=O)N1CCC[C@H]1C(=O)N[C@H](C)C(N)=O [compound 24199] (Ac-[d2Nal][dPhe(4-Cl)][d3Pal]SR[dK](Nicotinoyl)LRP[dA]-NH2)
3. CC[C@H](C)[C@H](NC(=O)[C@H](CO)NC(=O)[C@@H](Cc1cccnc1)NC(=O)[C@@H](Cc1ccc(Cl)cc1)NC(=O)[C@@H](Cc1ccc2ccccc2c1)NC(C)=O)C(=O)N[C@H](CCCCNC(=O)c1cccnc1)C(=O)N[C@@H](CC(C)C)C(=O)N[C@@H](CCCCNC(C)C)C(=O)N1CCC[C@H]1C(=O)N[C@H](C)C(N)=O [compound 25144] (Ac-[d2Nal][dPhe(4-Cl)][d3Pal]SI[dK](Nicotinoyl)L[Lys(iPr)]P[dA]-NH2)

OUT:
["122.2 ± 5.1 mm^2 /10", "146.8 mm^2 /10", "147.7 mm^2 /10"]

IN: Field request: Wheal | item: CC(=O)N[C@H](Cc1ccc2ccccc2c1)C(=O)N[C@H](Cc1ccc(Cl)cc1)C(=O)N[C@H](Cc1cccnc1)C(=O)N[C@@H](CO)C(=O)N[C@@H](CCCCNC(=O)c1cccnc1)C(=O)N[C@H](CCCCN(C)C)C(=O)N[C@@H](CC(C)C)C(=O)N[C@@H](CCCCNC(C)C)C(=O)N1CCC[C@H]1C(=O)N[C@H](C)C(N)=O [compound 25591] (Ac-[d2Nal][dPhe(4-Cl)][d3Pal]SK(Nicotinoyl)[dLys(Me2)]L[Lys(iPr)]P[dA]-NH2)
OUT: 111 ± 2 mm^2 /10
